assay details: physchem
run parameters: pH 7.4, aqueous buffer, kinetic from dmso stock, Solubility Mean
readout: solubility (µM)
Write it as a number; the unit µM goes unstated.

Requested read-out: solubility. Entry: `C[N+](C)(C)CCOP(=O)([O-])OP(=O)([O-])OC[C@H]1O[C@@H](n2ccc(NO)nc2=O)[C@H](O)[C@@H]1O.[Na+]` 14.3

====

assay details: A-B permeability (Caco-2, pH 6.5/7.4)
run parameters: human, Caco-2, pH 6.5, Percent Recovery 2nd, A-B, Caco-2, pH 6.5/7.4; test conc. 1.0E−05M
readout: recovery at 10 µM (%)
Write it as a number; the unit % goes unstated.

compound: C[N+](C)(C)CCOP(=O)([O-])OP(=O)([O-])OC[C@H]1O[C@@H](n2ccc(NO)nc2=O)[C@H](O)[C@@H]1O.[Na+] [Example 1, mono sodium salt]
recovery at 10 µM / %: 115

Requested read-out: recovery at 10 µM. Entry: CC(C)C(=O)OC[C@H]1O[C@@H](n2ccc(NO)nc2=O)[C@H](O)[C@@H]1O [molnupiravir, reference compound] 71

====

System: respiratory syncytial virus (RSV) A2
assay details: microbe, parasite or virus in culture
run parameters: human respiratory syncytial virus, MA104
readout: EC50 (nM)
Write it as a number; the unit nM goes unstated.

Requested read-out: EC50. Entry: C[N+](C)(C)CCOP(=O)([O-])OP(=O)([O-])OC[C@H]1O[C@@H](n2ccc(NO)nc2=O)[C@H](O)[C@@H]1O.[Na+] [Example 1, mono sodium salt] 1100

====

tested system: N-terminally truncated recombinant hDHODH enzyme (Homo sapiens, UniProt Q02127)
Sequence (Q02127 whole entry, looked up, the tested form may be a part): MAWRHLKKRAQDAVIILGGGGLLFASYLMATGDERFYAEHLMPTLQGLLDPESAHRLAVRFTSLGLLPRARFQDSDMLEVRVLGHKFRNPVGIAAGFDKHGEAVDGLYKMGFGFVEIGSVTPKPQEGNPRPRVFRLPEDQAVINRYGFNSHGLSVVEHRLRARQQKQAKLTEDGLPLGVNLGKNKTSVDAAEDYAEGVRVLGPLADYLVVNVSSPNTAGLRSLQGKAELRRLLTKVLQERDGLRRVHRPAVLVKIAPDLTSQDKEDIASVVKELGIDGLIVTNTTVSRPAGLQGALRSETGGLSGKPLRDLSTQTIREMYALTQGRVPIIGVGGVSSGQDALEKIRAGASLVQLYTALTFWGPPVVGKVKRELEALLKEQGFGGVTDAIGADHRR
assay details: Human DHODH inhibition assay
Assay type: biochemical
run parameters: substrate decylubichinon varied; pH 8.0, 30° C.; read-out: Ki (decylubichinon)
readout: Ki (nM)
Write it as a number; the unit nM goes unstated.

Requested read-out: Ki. Entry: COc1cccc(C2=CCC=C(NC(=O)C3=C(C(=O)O)CCC3)C(F)=C2)c1 [Example C26] 245
